- target or test system: T1, purified human αvβ3 integrin protein (human, UniProt P06756 31-1048; P05106 27-788)
- T1 construct: Bought heterodimer; also called ABI; purified αvβ3 integrin
- T1 sequence (P06756 31-1048, form in doubt, chain 1 of 2): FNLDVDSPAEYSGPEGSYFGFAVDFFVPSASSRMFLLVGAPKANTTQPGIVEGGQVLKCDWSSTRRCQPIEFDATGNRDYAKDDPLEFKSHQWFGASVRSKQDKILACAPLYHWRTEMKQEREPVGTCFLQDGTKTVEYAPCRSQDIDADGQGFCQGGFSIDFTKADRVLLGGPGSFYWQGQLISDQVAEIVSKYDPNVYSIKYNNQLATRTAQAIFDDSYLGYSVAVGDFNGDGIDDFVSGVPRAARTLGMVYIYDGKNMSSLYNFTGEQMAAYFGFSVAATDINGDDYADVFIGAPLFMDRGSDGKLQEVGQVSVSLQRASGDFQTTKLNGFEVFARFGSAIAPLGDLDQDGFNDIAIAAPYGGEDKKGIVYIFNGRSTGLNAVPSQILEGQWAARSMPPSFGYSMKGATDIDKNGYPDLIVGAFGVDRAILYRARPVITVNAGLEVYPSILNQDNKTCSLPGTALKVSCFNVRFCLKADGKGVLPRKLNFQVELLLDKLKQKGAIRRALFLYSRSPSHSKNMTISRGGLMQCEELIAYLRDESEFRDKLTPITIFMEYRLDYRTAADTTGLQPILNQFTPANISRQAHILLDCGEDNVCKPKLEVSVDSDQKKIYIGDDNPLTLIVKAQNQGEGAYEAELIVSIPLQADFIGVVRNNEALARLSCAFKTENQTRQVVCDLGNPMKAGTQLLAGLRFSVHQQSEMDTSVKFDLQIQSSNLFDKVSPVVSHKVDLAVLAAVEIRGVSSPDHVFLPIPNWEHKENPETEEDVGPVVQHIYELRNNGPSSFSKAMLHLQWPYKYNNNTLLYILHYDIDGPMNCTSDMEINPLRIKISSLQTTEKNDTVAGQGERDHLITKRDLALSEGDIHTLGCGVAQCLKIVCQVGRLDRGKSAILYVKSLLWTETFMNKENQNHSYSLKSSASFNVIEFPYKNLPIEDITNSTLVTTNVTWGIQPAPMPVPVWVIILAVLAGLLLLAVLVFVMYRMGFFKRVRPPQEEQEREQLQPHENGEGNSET
- T1 sequence (P05106 27-788, form in doubt, chain 2 of 2): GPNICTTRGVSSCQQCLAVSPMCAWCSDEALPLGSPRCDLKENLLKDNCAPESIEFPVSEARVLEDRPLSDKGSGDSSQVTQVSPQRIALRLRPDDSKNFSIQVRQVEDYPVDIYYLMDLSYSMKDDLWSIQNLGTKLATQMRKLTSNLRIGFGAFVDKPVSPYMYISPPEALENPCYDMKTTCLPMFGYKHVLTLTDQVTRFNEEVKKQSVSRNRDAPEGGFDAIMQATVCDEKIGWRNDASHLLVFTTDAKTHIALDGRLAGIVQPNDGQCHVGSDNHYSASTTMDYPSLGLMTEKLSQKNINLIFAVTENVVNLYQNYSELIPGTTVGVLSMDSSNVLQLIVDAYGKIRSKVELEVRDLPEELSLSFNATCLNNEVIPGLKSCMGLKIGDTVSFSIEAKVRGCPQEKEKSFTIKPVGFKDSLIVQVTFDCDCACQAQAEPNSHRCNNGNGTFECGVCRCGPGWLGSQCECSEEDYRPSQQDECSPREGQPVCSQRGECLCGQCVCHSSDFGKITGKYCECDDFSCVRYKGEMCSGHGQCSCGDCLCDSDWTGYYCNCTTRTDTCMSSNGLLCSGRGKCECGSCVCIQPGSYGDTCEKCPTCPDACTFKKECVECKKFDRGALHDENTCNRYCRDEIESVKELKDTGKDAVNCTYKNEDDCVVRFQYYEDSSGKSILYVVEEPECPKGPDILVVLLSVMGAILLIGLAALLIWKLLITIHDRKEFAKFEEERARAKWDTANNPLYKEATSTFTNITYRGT
- assay notes: competition with 125I-echistatin on purified human αvβ3 integrin, filter plate;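 further: test ligands incubated two hours at room temperature with the integrin, bound radioactivity retained on filters measured by gamma counting, IC50 obtained through nonlinear regression fitting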
[ ]: non-standard residue; d: D form. The star is where a group is joined. Cypate = CC1(C)C(/C=C/C=C/C=C/C=C2/N(CCC(=O)*)c3ccc4ccccc4c3C2(C)C)=[N+](CCC(=O)O)c2ccc3ccccc3c21; DOTA = O=C(O)CN1CCN(CC(=O)O)CCN(CC(=O)*)CCN(CC(=O)O)CC1
# Lookup of reported IC50 keyed by entry

- binder: "{DOTA}-RGDSPK-OH [DOTA-Arg-Gly-Asp-Ser-Pro-Lys-OH]"
  IC50 [nM]: 694
- binder: "H-HDRGDCFK-OH [H-His-Asp-Arg-Gly-Asp-Cys-Phe-Lys-OH]"
  IC50 [nM]: 411
- binder: "cyclo(K(Cypate)RGD[dF]V) (SMILES CC(C)[C@@H]1NC(=O)[C@@H](Cc2ccccc2)NC(=O)[C@H](CC(=O)O)NC(=O)CNC(=O)[C@H](CCCNC(=N)N)NC(=O)[C@H](CCCCNC(=O)CCN2/C(=C/C=C/C=C/C=C/C3=[N+](CCC(=O)O)c4ccc5ccccc5c4C3(C)C)C(C)(C)c3c2ccc2ccccc32)NC1=O, also called Cyclo(K^(Cypate)RGDfV); cyclo-[K^(Cypate)RGDfV]) [Cyclo(Lys(Cypate)-Arg-Gly-Asp-DPhe-Val)]"
  IC50 [nM]: 79500
- binder: "XVKRGD (HELM PEPTIDE1{[dF].V.K.R.G.D}$PEPTIDE1,PEPTIDE1,1:R1-6:R2$$$V2.0; SMILES CC(C)[C@@H]1NC(=O)[C@@H](Cc2ccccc2)NC(=O)[C@H](CC(=O)O)NC(=O)CNC(=O)[C@H](CCCNC(=N)N)NC(=O)[C@H](CCCCN)NC1=O) [Cyclo(DPhe-Val-Lys-Arg-Gly-Asp)-OH]"
  IC50 [nM]: 1890
